Biological target: endogenous kinases and other proteins enriched by Kinobeads from mixed cancer cell lysates (Homo sapiens, UniProt Q12851)
Construct: to maximize the representation of endogenous proteins; endogenous in cells
Sequence (Q12851 1-820): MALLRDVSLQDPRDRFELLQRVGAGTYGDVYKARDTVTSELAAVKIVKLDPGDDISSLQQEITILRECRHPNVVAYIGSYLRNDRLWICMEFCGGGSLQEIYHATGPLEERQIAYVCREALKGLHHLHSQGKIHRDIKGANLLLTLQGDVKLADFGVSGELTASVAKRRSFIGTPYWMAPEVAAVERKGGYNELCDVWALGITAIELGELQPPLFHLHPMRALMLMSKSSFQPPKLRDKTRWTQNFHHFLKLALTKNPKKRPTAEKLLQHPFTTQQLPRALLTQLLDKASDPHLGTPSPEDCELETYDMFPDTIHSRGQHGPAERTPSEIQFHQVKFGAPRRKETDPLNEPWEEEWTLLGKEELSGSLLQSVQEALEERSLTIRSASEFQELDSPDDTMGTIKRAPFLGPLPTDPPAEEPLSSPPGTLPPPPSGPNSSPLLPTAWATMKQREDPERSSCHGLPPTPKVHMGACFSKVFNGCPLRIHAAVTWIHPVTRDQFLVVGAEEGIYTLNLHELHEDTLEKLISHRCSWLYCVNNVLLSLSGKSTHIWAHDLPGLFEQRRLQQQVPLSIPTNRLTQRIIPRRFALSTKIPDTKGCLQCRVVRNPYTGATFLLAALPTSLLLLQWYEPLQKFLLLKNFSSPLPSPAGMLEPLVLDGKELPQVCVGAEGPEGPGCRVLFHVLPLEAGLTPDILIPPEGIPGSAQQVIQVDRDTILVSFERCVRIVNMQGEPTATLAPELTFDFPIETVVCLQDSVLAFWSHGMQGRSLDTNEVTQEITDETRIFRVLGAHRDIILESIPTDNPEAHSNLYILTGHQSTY
Experiment: Kinobeads pulldown, full dose-response (eight doses)
Details: target MAP4K2
result.type: EC50 (nM)
Answer in nM, number only, no unit symbol.

Qu. Quickly give me recorded EC50 for Cn1cc(-c2nc(N[C@@H]3CCCC[C@@H]3N)c(F)c3c2C(=O)NC3)cn1
Ans. 595

====

molecular target: SPR (Homo sapiens, UniProt P35270); construct: endogenous in cells; test: Kinobeads full dose-response competition binding: SPR; details: Gene Name SPR; eight-dose curve fit, doses in nM
Sequence (P35270 whole entry): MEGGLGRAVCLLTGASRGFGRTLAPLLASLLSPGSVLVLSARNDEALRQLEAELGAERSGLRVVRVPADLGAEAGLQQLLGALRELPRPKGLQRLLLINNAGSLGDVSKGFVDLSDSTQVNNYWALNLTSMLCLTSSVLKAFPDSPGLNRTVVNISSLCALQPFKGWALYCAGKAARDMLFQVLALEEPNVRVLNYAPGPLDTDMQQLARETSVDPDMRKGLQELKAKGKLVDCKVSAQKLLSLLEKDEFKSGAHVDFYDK
result.type: EC50 (nM)
Answer in nM, number only, no unit symbol.

Qu. Quickly give me recorded EC50 for NCc1ccc(-c2nc(-c3ccncc3)c(-c3ccc(Cl)c(O)c3)[nH]2)cc1
Ans. 32.8

====

molecular target: PIK3CD (Homo sapiens, UniProt O00329); construct: a mixture of lysates from five cancer cell lines; endogenous in cells; assay: Kinobeads competition binding: PIK3CD; conditions: target PIK3CD
Sequence (O00329 whole entry): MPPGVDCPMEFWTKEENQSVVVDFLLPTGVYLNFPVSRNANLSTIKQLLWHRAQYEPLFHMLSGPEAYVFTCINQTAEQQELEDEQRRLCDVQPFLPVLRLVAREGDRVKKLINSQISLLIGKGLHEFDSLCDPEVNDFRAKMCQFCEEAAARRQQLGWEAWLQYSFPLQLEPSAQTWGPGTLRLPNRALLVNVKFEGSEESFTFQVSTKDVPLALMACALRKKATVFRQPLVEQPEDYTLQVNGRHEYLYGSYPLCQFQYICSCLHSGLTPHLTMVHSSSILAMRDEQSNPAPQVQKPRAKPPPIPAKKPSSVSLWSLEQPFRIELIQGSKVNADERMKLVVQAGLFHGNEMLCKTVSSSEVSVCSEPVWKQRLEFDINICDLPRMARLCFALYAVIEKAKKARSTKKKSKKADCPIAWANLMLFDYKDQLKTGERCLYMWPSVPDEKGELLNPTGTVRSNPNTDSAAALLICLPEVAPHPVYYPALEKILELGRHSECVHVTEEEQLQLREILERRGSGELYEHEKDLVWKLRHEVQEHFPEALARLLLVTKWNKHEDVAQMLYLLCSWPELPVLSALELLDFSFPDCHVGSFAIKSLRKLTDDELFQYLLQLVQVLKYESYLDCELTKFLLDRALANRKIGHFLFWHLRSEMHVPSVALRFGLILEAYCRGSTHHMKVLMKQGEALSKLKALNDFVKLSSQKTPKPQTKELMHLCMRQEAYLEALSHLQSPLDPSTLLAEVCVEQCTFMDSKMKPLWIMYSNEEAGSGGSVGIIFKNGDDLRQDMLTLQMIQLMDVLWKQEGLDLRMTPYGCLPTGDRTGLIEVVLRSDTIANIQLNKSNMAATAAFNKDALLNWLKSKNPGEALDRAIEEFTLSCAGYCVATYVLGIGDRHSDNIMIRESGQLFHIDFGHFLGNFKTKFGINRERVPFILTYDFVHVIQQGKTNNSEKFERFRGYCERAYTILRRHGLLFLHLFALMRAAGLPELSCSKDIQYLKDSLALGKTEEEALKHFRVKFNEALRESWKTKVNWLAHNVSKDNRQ
Sequence (P27986 whole entry partner): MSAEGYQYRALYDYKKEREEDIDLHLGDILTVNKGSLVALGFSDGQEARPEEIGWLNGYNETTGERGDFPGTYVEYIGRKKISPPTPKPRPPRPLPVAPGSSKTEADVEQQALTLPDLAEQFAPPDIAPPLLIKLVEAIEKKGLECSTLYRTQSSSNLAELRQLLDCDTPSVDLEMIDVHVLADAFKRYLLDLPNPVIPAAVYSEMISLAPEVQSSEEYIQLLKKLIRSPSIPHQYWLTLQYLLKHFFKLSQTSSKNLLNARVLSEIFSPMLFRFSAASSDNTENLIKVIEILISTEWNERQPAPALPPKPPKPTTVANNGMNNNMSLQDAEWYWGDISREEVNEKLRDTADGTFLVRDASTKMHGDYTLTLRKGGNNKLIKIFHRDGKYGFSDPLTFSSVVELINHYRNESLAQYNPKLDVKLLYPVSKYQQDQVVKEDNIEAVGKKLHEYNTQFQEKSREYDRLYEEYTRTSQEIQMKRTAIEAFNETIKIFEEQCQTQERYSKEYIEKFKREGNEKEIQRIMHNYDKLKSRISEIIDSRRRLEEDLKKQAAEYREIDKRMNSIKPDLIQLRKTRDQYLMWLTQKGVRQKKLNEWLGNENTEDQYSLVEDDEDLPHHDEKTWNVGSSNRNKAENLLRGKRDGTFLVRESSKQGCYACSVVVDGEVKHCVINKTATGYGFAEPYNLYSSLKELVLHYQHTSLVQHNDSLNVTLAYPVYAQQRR
result.type: CATDS
Please state the value as a number alone, without comment.

Worked examples, 3 molecules total:
CCc1cc2c(cc1N1CCC(N3CCOCC3)CC1)C(C)(C)c1[nH]c3cc(C#N)ccc3c1C2=O [Alectinib] :: 0
Nc1ncnc2[nH]c(-c3ccccc3)nc12 [AH5015_KCGS] :: 0.05532
N#CC1(c2ccc(NC(=O)c3cccnc3NCc3ccncc3)cc2)CCCC1 [Apatinib] :: 0

Now turn to the next molecule.
Qu. Quickly give me recorded CATDS for CCN1CCN(Cc2ccc(Nc3ncc(F)c(-c4cc(F)c5nc(C)n(C(C)C)c5c4)n3)nc2)CC1 [Abemaciclib]
Ans. 0

====

# Lookup of reported potency estimated from few doses keyed by entry
target: ABL1 (Homo sapiens, UniProt P00519); assay: Kinobeads two-dose competition binding: ABL1; settings: sheet "Kinobeads Drugmatrix - all"; unit inferred; read-out: Kinobeads Drugmatrix - all: apparent Kd, ABL1
Sequence (P00519 28-1130 limits assumed): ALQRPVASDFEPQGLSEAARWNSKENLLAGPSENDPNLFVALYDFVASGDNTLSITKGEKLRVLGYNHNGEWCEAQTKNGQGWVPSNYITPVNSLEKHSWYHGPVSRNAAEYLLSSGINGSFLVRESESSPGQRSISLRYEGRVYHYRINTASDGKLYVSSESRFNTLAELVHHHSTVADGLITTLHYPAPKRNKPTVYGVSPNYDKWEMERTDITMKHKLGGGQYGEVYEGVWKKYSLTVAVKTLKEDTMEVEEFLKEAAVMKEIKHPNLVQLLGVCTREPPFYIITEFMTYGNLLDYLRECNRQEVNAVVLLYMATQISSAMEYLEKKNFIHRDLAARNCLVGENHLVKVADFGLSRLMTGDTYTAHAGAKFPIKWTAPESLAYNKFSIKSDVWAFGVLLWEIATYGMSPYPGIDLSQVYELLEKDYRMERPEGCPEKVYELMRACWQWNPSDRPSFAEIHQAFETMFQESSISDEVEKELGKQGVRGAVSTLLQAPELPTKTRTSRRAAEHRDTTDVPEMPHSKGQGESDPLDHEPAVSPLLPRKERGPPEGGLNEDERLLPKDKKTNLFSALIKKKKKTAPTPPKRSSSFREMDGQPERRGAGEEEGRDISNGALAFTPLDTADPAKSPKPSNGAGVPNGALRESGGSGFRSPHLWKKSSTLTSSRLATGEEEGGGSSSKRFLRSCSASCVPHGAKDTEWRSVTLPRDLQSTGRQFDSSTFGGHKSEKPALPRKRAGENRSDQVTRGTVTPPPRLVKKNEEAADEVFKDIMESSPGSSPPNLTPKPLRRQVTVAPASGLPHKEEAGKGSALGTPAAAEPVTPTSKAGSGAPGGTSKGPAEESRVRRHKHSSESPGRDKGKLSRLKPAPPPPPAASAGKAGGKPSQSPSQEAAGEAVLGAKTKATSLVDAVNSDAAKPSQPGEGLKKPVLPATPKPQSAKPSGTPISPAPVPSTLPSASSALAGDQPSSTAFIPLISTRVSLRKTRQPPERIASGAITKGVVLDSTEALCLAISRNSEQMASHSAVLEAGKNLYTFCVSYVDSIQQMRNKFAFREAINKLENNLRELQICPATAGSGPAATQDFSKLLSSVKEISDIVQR

Worked examples, 4 compounds total:
CC(C)c1nc(-c2cccc(NS(=O)(=O)c3c(F)cccc3F)c2F)c(-c2ccnc(Nc3ccc(N4CCOCC4)nc3)n2)s1 [GSK2008607A] :: 706 nM
CC(C)c1nc(-c2cccc(NS(=O)(=O)c3ccccc3)c2)c(-c2ccnc(Nc3ccc4c(c3)CN(C)CC4)n2)s1 [GSK1649598A] :: 368 nM
NCC(C(=O)Nc1cc(Br)c(-c2ccnc3[nH]ccc23)s1)c1ccccc1 (centres unmarked) [GSK1269851A] :: > 1000 nM
CC(=O)N1CCN(c2ccc(Nc3nccc(-c4sc(C(C)C)nc4-c4cccc(NS(=O)(=O)c5ccccc5)c4)n3)cn2)CC1 [GSK1645872A] :: 746 nM

Now turn to the next compound.
Qu. Please report potency estimated from few doses with ABL1 (Homo sapiens, UniProt P00519) for item COc1cc2nccc(Nc3ccc(Oc4ccccc4)cc3)c2cc1OC [GI261656A] .
Ans. 661 nM

====

biological target: PRKCD (Homo sapiens, UniProt Q05655); construct: endogenous in cells; experiment: Kinobeads full dose-response competition binding: PRKCD; conditions: Gene Name PRKCD; EC50 with Correction, doses in nM; read-out: apparent Kd
result.type: Kd (nM)
Answer in nM, number only, no unit symbol.

Qu. Quickly give me recorded Kd for CCn1c(-c2nonc2N)nc2c(C#CC(C)(C)O)nc(OCCN)cc21 [GSK902056A]
Ans. 124

====

biological target: endogenous kinases and other proteins enriched by Kinobeads from mixed cancer cell lysates (Homo sapiens); construct: endogenous in cells; assay: Kinobeads pulldown, full dose-response (eight doses); details: target CCNH; read-out: apparent Kd
result.type: Kd
Entry format: amount then unit.

Qu. Quickly give me recorded Kd for Cn1cc(-c2nc(N[C@@H]3CCCC[C@@H]3N)c(F)c3c2C(=O)NC3)cn1 [TAK659]
Ans. 1.58 µM

====

target: endogenous kinases and other proteins enriched by Kinobeads from mixed cancer cell lysates (Homo sapiens); construct: endogenous in cells; experiment: Kinobeads pulldown, full dose-response (eight doses); settings: target PRKD2; read-out: apparent Kd
result.type: Kd (nM)
Answer in nM, number only, no unit symbol.

Qu. Quickly give me recorded Kd for Cn1cc(-c2nc(N[C@@H]3CCCC[C@@H]3N)c(F)c3c2C(=O)NC3)cn1
Ans. 895

====

target: EPHB4 (Homo sapiens); construct: endogenous in cells; assay: Kinobeads competition binding: EPHB4; conditions: target EPHB4
Sequence (P54760 16-987): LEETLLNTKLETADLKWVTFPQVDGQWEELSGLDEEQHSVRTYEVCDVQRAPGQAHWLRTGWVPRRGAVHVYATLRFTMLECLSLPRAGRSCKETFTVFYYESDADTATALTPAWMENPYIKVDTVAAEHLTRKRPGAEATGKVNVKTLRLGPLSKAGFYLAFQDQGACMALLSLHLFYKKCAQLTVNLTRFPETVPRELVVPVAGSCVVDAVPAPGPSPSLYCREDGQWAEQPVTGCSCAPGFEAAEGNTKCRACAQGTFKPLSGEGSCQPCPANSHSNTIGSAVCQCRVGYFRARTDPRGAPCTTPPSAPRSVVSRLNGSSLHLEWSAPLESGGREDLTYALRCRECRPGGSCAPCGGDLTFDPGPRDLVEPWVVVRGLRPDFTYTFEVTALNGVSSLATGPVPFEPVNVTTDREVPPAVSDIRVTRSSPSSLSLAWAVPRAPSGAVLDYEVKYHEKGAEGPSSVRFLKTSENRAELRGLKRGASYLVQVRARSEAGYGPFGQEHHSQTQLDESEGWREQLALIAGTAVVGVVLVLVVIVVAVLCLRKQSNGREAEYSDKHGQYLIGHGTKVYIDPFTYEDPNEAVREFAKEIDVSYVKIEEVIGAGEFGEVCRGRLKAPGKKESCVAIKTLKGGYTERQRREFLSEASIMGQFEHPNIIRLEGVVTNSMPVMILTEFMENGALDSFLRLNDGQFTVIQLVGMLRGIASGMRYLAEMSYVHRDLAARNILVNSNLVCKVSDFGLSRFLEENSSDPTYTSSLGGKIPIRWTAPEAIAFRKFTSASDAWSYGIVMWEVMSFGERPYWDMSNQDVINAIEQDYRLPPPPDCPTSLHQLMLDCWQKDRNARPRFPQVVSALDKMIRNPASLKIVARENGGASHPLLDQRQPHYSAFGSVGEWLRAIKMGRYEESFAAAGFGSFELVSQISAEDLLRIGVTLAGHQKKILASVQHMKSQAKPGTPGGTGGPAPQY
result.type: CATDS
Please state the value as a number alone, without comment.

Worked examples, 3 molecules total:
CCc1cc2c(cc1N1CCC(N3CCOCC3)CC1)C(C)(C)c1[nH]c3cc(C#N)ccc3c1C2=O :: 0
Nc1ncnc2[nH]c(-c3ccccc3)nc12 :: 0.03489
N#CC1(c2ccc(NC(=O)c3cccnc3NCc3ccncc3)cc2)CCCC1 :: 0

Qu. Quickly give me recorded CATDS for CCN1CCN(Cc2ccc(Nc3ncc(F)c(-c4cc(F)c5nc(C)n(C(C)C)c5c4)n3)nc2)CC1
Ans. 0

====

biological target: CSNK2A1 (Homo sapiens, UniProt P68400); construct: full-length PKN3, CSNK2A1 or CSNK2A2 ORF; host or cells: HEK293T; assay: NanoBRET in-cell target engagement in HEK293T cells: CSNK2A1; format: cell-based; conditions: CSNK2A1; replicate 1; read-out: NanoBRET Rep1
Sequence (P68400 whole entry): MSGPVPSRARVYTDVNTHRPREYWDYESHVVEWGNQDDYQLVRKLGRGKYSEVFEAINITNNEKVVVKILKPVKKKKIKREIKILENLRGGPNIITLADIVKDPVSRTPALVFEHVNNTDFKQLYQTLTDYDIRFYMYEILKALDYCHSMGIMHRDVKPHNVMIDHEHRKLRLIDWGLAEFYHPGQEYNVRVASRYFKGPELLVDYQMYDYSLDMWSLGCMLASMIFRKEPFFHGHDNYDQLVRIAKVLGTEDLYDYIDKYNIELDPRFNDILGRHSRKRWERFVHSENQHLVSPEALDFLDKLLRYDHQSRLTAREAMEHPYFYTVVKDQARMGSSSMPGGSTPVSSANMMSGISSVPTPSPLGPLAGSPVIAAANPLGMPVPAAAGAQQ
result.type: IC50 (nM)
Answer in nM, number only, no unit symbol.

Qu. Quickly give me recorded IC50 for COc1cc(Nc2ncc3c(C)nc(-c4cc5ccccc5[nH]4)n3n2)cc(OC)c1OC [GW869516X]
Ans. 471

====

tested on: MAP3K12; experiment: Kinobeads competition binding: MAP3K12; parameters: species or system human; details: target MAP3K12
# Lookup of reported CATDS keyed by entry
Please state the value as a number alone, without comment.

Worked examples, 3 compounds total:
N#CC1(c2ccc(NC(=O)c3cccnc3NCc3ccncc3)cc2)CCCC1 [Apatinib] :: 0
CCc1cc2c(cc1N1CCC(N3CCOCC3)CC1)C(C)(C)c1[nH]c3cc(C#N)ccc3c1C2=O [Alectinib] :: 0
Nc1ncnc2[nH]c(-c3ccccc3)nc12 [AH5015_KCGS] :: 0

Qu. Quickly give me recorded CATDS for CCN1CCN(Cc2ccc(Nc3ncc(F)c(-c4cc(F)c5nc(C)n(C(C)C)c5c4)n3)nc2)CC1 [Abemaciclib]
Ans. 0

====

molecular target: endogenous kinases and other proteins enriched by Kinobeads from mixed cancer cell lysates (Homo sapiens, UniProt P35916); construct: endogenous in cells; test: Kinobeads pulldown, full dose-response (eight doses); settings: target FLT4; read-out: apparent Kd;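 also: competition with Kinobeads ε after inhibitor preincubation in lysate (5 mg/ml protein) for 45 min at 4 °C, DMSO control, doses 0.3–1,000 nM, label-free LC–MS/MS quantification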
result.type: pKd
# pKd is unitless: minus log10 of the molar concentration; print number only

Qu. Quickly give me recorded pKd for Cn1cc(-c2nc(N[C@@H]3CCCC[C@@H]3N)c(F)c3c2C(=O)NC3)cn1 [TAK659]
Ans. 6.51

====

target: CSNK2A2 (Homo sapiens); assay: NanoBRET in-cell target engagement in HEK293T cells: CSNK2A2; format: cell-based; set-up: full-length PKN3, CSNK2A1 or CSNK2A2 ORF; host or cells: HEK293T; details: HEK293T cells, in-cell target engagement; read-out: IC50 CSNK2A2 NanoBRET
Sequence (P19784 whole entry): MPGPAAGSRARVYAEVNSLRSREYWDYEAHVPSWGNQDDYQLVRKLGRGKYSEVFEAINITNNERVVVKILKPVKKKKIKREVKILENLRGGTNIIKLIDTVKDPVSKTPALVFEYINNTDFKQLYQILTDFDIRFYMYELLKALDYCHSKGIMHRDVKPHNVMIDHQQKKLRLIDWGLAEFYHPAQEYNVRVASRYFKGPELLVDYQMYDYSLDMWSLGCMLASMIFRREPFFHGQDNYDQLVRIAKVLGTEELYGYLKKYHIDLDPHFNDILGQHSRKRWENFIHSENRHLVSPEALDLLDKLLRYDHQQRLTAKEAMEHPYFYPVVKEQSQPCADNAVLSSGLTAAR
result.type: IC50 (nM)
Answer in nM, number only, no unit symbol.

Qu. Please report IC50 with CSNK2A2 (Homo sapiens) for item COc1cc(Nc2ncc3c(C)nc(-c4cc5ccccc5[nH]4)n3n2)cc(OC)c1OC [GW869516X] .
Ans. 319
